The measurements presented in this section are drawn from patent US7659299B2.

Reported inhibition at 2 µM is given for each of the following compounds.
Target: SAP (Homo sapiens, UniProt P02743)
Sequence (P02743 20-223): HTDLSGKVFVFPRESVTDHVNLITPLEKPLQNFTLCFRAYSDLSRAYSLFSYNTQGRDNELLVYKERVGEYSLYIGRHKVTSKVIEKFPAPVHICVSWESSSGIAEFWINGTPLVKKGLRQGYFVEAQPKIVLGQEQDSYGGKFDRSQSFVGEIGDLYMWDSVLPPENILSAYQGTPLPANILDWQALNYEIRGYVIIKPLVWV
Assay: Inhibition of binding of 125I radiolabelled SAP to native long chromatin immobilized in microtitre plates
Set-up: 5 μl of radiolabelled SAP in TN; from tissue
Conditions: compound 2 μM; read-out: Percent inhibition of binding of radiolabelled SAP to immobilized native long chromatin
experimental-endpoint: inhibition at 2 µM

{"compound": "C[C@H](CSSC[C@@H](C)C(=O)N1CCC[C@@H]1C(=O)O)C(=O)N1CCC[C@@H]1C(=O)O", "recorded-value": "34%"}
{"compound": "O=C(O)[C@H]1CCCN1C(=O)COc1cccc2c(OCC(=O)N3CCC[C@@H]3C(=O)O)cccc12", "recorded-value": "51%"}
{"compound": "C[N+](C)(C)CCOP(=O)([O-])O [Phosphocholine, reference compound]", "recorded-value": "0%"}
{"compound": "O=C(O)[C@H]1CCCN1C(=O)Cc1ccc(CC(=O)N2CCC[C@@H]2C(=O)O)c2ccccc12", "recorded-value": "35%"}
{"compound": "NCCOP(=O)(O)O [Phosphoethanolamine, reference compound]", "recorded-value": "9%"}
{"compound": "O=C(O)[C@H]1CCCN1C(=O)[C@H]1CC[C@@H](C(=O)N2CCC[C@@H]2C(=O)O)CC1", "recorded-value": "35%"}
{"compound": "O=C(O)[C@H]1CCCN1C(=O)CCCCC(=O)N1CCC[C@@H]1C(=O)O", "recorded-value": "29%"}
{"compound": "O=C(O)[C@H]1CCCN1C(=O)COc1ccccc1OCC(=O)N1CCC[C@@H]1C(=O)O", "recorded-value": "34%"}
{"compound": "O=C(O)[C@H]1CCCN1C(=O)Cc1ccc(CC(=O)N2CCC[C@@H]2C(=O)O)cc1", "recorded-value": "19%"}
{"compound": "O=C(O)[C@H]1CCCN1C(=O)COc1ccc(OCC(=O)N2CCC[C@@H]2C(=O)O)cc1", "recorded-value": "36%"}
{"compound": "O=C(O)[C@H]1CCCN1C(=O)Cc1cccc(CC(=O)N2CCC[C@@H]2C(=O)O)c1", "recorded-value": "18%"}
{"compound": "O=C(O)[C@H]1CCCN1C(=O)Cc1cc(O)c(CC(=O)N2CCC[C@@H]2C(=O)O)cc1O", "recorded-value": "45%"}
